Test system: non-expressing oocytes
Format: cell-based, Xenopus laevis
Details: total [3H]CQ transport; [test solute]i = 5 mM (intracellular); mean ± SEM; SEM
Items are presented alongside their recorded Uptake of [3H]CQ (% PfCRTDd2 control), trans-stimulation, non-expressing oocytes.
REPORTED_PROPERTY: Uptake of [3H]CQ (% PfCRTDd2 control), trans-stimulation, non-expressing oocytes

INSERT INTO measurements (smiles_text, recorded_measurement) VALUES
  ('C[C@H](N)C(=O)O', 3.1),
  ('N[C@@H](CCC(=O)O)C(=O)O', 3.1),
  ('N[C@@H](Cc1c[nH]c2ccccc12)C(=O)O', 3.0),
  ('N[C@@H](CO)C(=O)O', 2.8),
  ('CC(C)[C@H](N)C(=O)O', 2.6),
  ('N=C(N)NCCC[C@H](N)C(=O)O', 2.7),
  ('NC(=O)CC[C@H](N)C(=O)O', 2.7),
  ('NC(=O)C[C@H](N)C(=O)O', 3.2),
  ('N[C@@H](CS)C(=O)O', 3.1),
  ('C[C@@H](O)[C@H](N)C(=O)O', 2.4),
  ('CC[C@H](C)[C@H](N)C(=O)O', 3.2),
  ('CC(C)C[C@H](N)C(=O)O', 3.2),
  ('NCCCC[C@H](N)C(=O)O', 2.3),
  ('N[C@@H](Cc1c[nH]cn1)C(=O)O', 3.0),
  ('N[C@@H](Cc1ccccc1)C(=O)O', 2.4);
